Examples of compounds with documented pIC50 follow.
# EXPERIMENTAL TARGET: Recombinant STAT3 protein (STAT3 (G127-I722)) (Homo sapiens, UniProt P40763)
# Construct: Recombinant STAT3 protein (STAT3 (G127-I722))
# Sequence (P40763 127-722): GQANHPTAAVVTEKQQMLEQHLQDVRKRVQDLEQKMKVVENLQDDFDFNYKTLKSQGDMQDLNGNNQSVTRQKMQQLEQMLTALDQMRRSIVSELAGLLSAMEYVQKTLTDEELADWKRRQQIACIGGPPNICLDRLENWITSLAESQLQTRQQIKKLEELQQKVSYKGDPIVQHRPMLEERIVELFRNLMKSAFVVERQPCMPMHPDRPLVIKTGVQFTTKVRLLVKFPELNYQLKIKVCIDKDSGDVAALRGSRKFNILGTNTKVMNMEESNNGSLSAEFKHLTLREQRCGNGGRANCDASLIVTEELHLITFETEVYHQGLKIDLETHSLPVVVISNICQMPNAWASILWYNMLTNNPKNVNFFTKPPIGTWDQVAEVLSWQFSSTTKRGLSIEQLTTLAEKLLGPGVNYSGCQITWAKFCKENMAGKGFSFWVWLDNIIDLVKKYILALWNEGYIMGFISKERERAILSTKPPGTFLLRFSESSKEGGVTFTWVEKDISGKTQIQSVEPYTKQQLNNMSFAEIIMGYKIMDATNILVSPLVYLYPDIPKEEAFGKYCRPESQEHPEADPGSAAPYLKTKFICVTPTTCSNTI
# RUN DESCRIPTION: STAT3 Fluorescence Polarization (FP) Assay
# Assay type: binding
# CONDITION PARAMETERS: STAT3 25 nM, probe 5-FAM-GpYLPQTV-NH2 2 nM, 45-minute incubation; read-out: STAT3 (FP assay IC50)
pIC50: −log10 of the molar value.

CCO[C@@H]1CC[C@H](NC(=O)c2cc3cc(C(F)(F)P(=O)(O)O)ccc3s2)C(=O)N2[C@H](CC[C@H]2C(=O)N2CC(C(=O)N3CCOCC3)C2)C1 [Compound 9]: 6.00 to 7.00
O=C(N[C@H]1CCC[C@H]2CCC[C@@H](C(=O)N3CC(n4ccnc4)C3)N2C1=O)c1cc2cc(C(F)(F)P(=O)(O)O)ccc2s1 [Compound 60]: > 7.00

Next up:
Return pIC50 for the following compound: C[C@@]1(O)CC[C@H]2CC[C@@H](C(=O)N3CC(C(=O)N4CCOCC4)C3)N2C(=O)[C@@H](NC(=O)c2cc3cc(C(F)(F)P(=O)(O)O)ccc3s2)C1 [Compound 17] > 7.00

* * *

Examples of molecules with documented pIC50 follow.
# EXPERIMENTAL TARGET: pY705-STAT3 in PBMC (Homo sapiens, UniProt P40763)
# Construct: Cryopreserved Peripheral Blood Mononuclear Cells (PBMC) are from AllCells; host or cells: cryopreserved PBMC
# Sequence (P40763 whole entry): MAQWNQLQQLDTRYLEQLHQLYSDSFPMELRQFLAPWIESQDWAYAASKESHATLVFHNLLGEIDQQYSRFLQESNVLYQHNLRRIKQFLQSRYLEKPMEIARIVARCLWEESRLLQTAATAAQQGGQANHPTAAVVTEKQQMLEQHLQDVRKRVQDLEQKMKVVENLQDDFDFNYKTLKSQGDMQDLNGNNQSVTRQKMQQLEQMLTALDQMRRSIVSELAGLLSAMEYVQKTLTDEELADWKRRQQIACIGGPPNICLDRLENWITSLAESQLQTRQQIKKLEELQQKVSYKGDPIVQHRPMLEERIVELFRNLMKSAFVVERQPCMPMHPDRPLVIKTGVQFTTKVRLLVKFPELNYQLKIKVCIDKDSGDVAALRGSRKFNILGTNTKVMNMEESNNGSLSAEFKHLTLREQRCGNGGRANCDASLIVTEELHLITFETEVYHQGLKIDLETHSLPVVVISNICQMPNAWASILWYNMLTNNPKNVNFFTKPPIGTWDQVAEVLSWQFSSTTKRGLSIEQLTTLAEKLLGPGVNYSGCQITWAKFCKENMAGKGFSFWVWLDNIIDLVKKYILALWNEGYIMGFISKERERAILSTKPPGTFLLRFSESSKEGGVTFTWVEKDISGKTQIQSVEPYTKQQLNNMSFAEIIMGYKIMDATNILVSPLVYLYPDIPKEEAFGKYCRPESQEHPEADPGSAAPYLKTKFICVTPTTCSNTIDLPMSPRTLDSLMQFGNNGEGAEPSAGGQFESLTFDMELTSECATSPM
# RUN DESCRIPTION: MSD-pSTAT-PBMC Assay (pSTAT3, IL-6 stimulated)
# Assay type: cell-based
# CONDITION PARAMETERS: PBMC, compound 3 hrs, then 10 ng/mL IL-6 for 10 min; Table 115; read-out: STAT3
pIC50: −log10 of the molar value.

The following molecules have reported results that may help.
CCCOC(=O)[C@H](C)NP(=O)(Oc1ccccc1)[C@@H](F)c1ccc2sc(C(=O)N[C@H]3CCC[C@H]4CC[C@@H](C(=O)N5CC(c6cncnc6N6CCOCC6)C5)N4C3=O)cc2c1 (stereo partly drawn): 6.00 to 7.00
CC(C)(CO)C(=O)SCCOP(=O)(Oc1ccccc1)C(F)(F)c1ccc2sc(C(=O)N[C@H]3CCCC[C@H]4CC[C@@H](C(=O)N5C[C@@H](C#N)[C@H](c6cc[nH]c(=O)c6)C5)N4C3=O)cc2c1 (single isomer, unassigned): < 5.52
CCCOC(=O)[C@H](C)N[P@](=O)(Oc1ccccc1)[C@H](F)c1ccc2sc(C(=O)N[C@H]3CCC[C@H]4CC[C@@H](C(=O)N5CC(c6cnccc6F)C5)N4C3=O)cc2c1 (single isomer, unassigned) [Compound 997]: > 7.00
CCCCOC(=O)[C@H](C)NP(=O)(Oc1ccccc1)C(F)(F)c1ccc2ccc(C(=O)N[C@H]3CCCC[C@H]4CC[C@@H](C(=O)N5CC(c6ccccc6)CC56CC6)N4C3=O)cc2c1 (stereo partly drawn): < 5.52
CCCOC(=O)[C@H](C)NP(=O)(Cc1ccc2sc(C(=O)N[C@H]3CCC[C@H]4CC[C@@H](C(=O)N5CC(c6cnccc6F)C5)N4C3=O)cc2c1)Oc1ccccc1 (stereo partly drawn): > 7.00
COc1ccncc1C1CN(C(=O)[C@@H]2CC[C@@H]3CCC[C@H](NC(=O)c4cc5cc([C@H](F)[P@@](=O)(N[C@@H](C)C(=O)OCc6ccccc6)Oc6ccccc6)ccc5s4)C(=O)N32)C1 (single isomer, unassigned) [Compound 1051]: 6.00 to 7.00

Return pIC50 for the following molecule: Cc1ccncc1C1CN(C(=O)[C@@H]2CC[C@@H]3CCCC[C@H](NC(=O)c4cc5cc(CP(=O)(N[C@@H](C)C(=O)OCC(C)C)Oc6ccccc6)ccc5s4)C(=O)N32)C1 (stereo partly drawn) > 7.00

Return pIC50 for the following molecule: CCCOC(=O)[C@H](C)N[P@@](=O)(Oc1ccccc1)[C@H](F)c1ccc2sc(C(=O)N[C@H]3CCC[C@H]4CC[C@@H](C(=O)N5CC(c6cnccc6C)C5)N4C3=O)cc2c1 (single isomer, unassigned) [Compound 1000] > 7.00

Return pIC50 for the following molecule: CCCOC(=O)[C@H](C)N[P@@](=O)(Oc1ccccc1)[C@H](F)c1ccc2sc(C(=O)N[C@H]3CCC[C@H]4CC[C@@H](C(=O)N5CC(c6cccnc6)C5)N4C3=O)cc2c1 (single isomer, unassigned) [Compound 463] > 7.00

These entries and their values trace back to patent US20250215029A1.
